Tested on: biotinyl-Phe-oxazolone
protocolNotes: self-aminoacylation, catalytic enhancement (BFO) (fold over background); higher = more active; k-Seq, kA / k0A0; sequences stand for … in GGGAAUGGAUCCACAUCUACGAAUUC…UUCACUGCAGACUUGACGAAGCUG
Variants at the floor of the assay were thinned out.
The entries below come with measured self-aminoacylation values attached.
Response field accepts a number only; no unit should be typed.

AUUACCAUGGUCAUCGAGUCA [Fam2.1 aminoacylation ribozyme variant] = 0.683
CCACAUUUCAGGCAAUCGGUC [Fam1B.1 aminoacylation ribozyme variant] = 1.92

Query: State its self-aminoacylation for this sequence: AUUAAACUGGUCAUCGAGUGA [Fam2.1 aminoacylation ribozyme variant]
Result: 4.94

Query: Using known records, supply self-aminoacylation for CCACACUUCAAGGAAGCGGUC [Fam1B.1 aminoacylation ribozyme variant]
Result: 0.364

Query: Entry ACGUUUGCGAAUAGUCGCAAG [Fam3.1 aminoacylation ribozyme variant] needs its self-aminoacylation filled in; supply it.
Result: 3.56

Query: Supply reported self-aminoacylation belonging to this sequence: AUUCAUCUAGGUCAUUGGGUG [Fam2.2 aminoacylation ribozyme variant]
Result: 26.7

Query: Return self-aminoacylation for the following sequence: AGGUUUGCUAAUAGACGCAAG [Fam3.1 aminoacylation ribozyme variant]
Result: 0.835

Query: Please indicate self-aminoacylation recorded for AUUACCUUGGUCAUCGAGUGG [Fam2.1 aminoacylation ribozyme variant]
Result: 1.64

Query: Check the records and state self-aminoacylation for GUUACCCUGGUCAUCGAGUCA [Fam2.1 aminoacylation ribozyme variant]
Result: 1.64

====

System: biotinyl-Trp-oxazolone
protocolNotes: self-aminoacylation, catalytic enhancement (BWO) (fold over background); higher = more active; k-Seq, kA / k0A0; sequences stand for … in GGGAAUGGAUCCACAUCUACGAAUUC…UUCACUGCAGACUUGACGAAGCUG
Fewer inactive variants are shown than the library holds.
Recorded self-aminoacylation determines the group label, using lo = under 1, med = from 1 up to 8, hi = 8 and over

AAGUUUCCUAAUAGUCCCAAG [Fam3.1 aminoacylation ribozyme variant] = med
CCACACUUCAAGCUAUCGGGC [Fam1B.1 aminoacylation ribozyme variant] = med
CGACACUUCAAGCAAUCGUUC [Fam1B.1 aminoacylation ribozyme variant] = lo
CCACACAUCAGGCAAUCGGUC [Fam1B.1 aminoacylation ribozyme variant] = lo
AAGUUUGCUAAUAGUCACAAU [Fam3.1 aminoacylation ribozyme variant] = med

Query: Category of AUUCACCAAGGUCAUCGGGUU [Fam2.2 aminoacylation ribozyme variant] , please.
Result: med

Query: Band assignment needed for AUCCACCUCGGUCAUCGGGUG [Fam2.2 aminoacylation ribozyme variant] please.
Result: med

Query: Pick a category. Item: GCAAACUUCAAGCAAUCGGUC [Fam1B.1 aminoacylation ribozyme variant]
Result: hi

Query: Which class does AUCACCCCGGUCAUCGAGUGA [Fam2.1 aminoacylation ribozyme variant] fall in?
Result: hi

====

Test system: biotinyl-Phe-oxazolone
protocolNotes: self-aminoacylation, catalytic enhancement (BFO) (fold over background); higher = more active; k-Seq, kA / k0A0; sequences stand for … in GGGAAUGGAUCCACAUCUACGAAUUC…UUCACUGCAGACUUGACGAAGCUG
This sample holds only a part of the variants without activity.
Below, each of the sequences is paired with its reported self-aminoacylation value.
Answer with a number only.

AUUACCCUGGUCAUCGGUUGA [Fam2.1 aminoacylation ribozyme variant] = 6.78
UUUCACCUAGGUGAUCGGGUG [Fam2.2 aminoacylation ribozyme variant] = 24.3
CCACAUUUCCAGCAAUCGGUC [Fam1B.1 aminoacylation ribozyme variant] = 1.26

Query: Please give the documented self-aminoacylation of AUUCAGCUAGGUCAUCAGGUG [Fam2.2 aminoacylation ribozyme variant]
Result: 8.1

Query: Input AAGUUUGCUAAUAGUGGCAUG [Fam3.1 aminoacylation ribozyme variant] , output reported self-aminoacylation.
Result: 1.1

====

self-aminoacylation values, listed per item
Tested on: biotinyl-Phe-oxazolone
protocolNotes: self-aminoacylation, catalytic enhancement (BFO) (fold over background); higher = more active; k-Seq, kA / k0A0; sequences stand for … in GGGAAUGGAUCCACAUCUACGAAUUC…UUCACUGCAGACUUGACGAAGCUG
This sample holds only a part of the variants without activity.

Consider the worked cases shown below.
AAGUUUGCUAAUCGUUGCAAG [Fam3.1 aminoacylation ribozyme variant] = 1.13
AUUCACCUGGGUCCUCGGGUG [Fam2.2 aminoacylation ribozyme variant] = 39
CCACACUUCAAGCGAGCGGUC [Fam1B.1 aminoacylation ribozyme variant] = 0.929
AUUACCCUGGUCAUCGCGUGA [Fam2.1 aminoacylation ribozyme variant] = 139
AUUACCCUAGUCAUCGCGUGA [Fam2.1 aminoacylation ribozyme variant] = 54.5
AUUACCCUGGUCGCCGAGUGA [Fam2.1 aminoacylation ribozyme variant] = 22.8

Query: // Input: AUAACCCUGGUAAUCGAGUGA [Fam2.1 aminoacylation ribozyme variant] . Output its self-aminoacylation only.
Result: 42.6

Query: Could you please provide reported self-aminoacylation for AUUCACCUAGGUCCUCGGGAG [Fam2.2 aminoacylation ribozyme variant] ? Thanks!
Result: 2.83

Query: Identify the reported self-aminoacylation for the following entry. CUGCUUCAAACAAUCGGUCUG [Fam1A.1 aminoacylation ribozyme variant]
Result: 125

====

Test system: biotinyl-Trp-oxazolone
protocolNotes: self-aminoacylation, catalytic enhancement (BWO) (fold over background); higher = more active; k-Seq, kA / k0A0; sequences stand for … in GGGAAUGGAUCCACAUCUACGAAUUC…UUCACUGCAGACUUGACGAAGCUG
Fewer inactive variants are shown than the library holds.
Classify as follows. Reported self-aminoacylation greater than or equal to 8: 1. Reported self-aminoacylation below: 0.

AUUCACCUAACUCAUCGGGUG [Fam2.2 aminoacylation ribozyme variant] = 0

Next up:
Query: Reported self-aminoacylation reaches at least 8 for GUGACCCUGGUCAUCGAGUGA [Fam2.1 aminoacylation ribozyme variant] ?
Result: 1

====

Tested on: biotinyl-Phe-oxazolone
protocolNotes: self-aminoacylation, catalytic enhancement (BFO) (fold over background); higher = more active; k-Seq, kA / k0A0; sequences stand for … in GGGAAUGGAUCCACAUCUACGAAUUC…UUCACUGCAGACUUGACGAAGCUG
Variants at the floor of the assay were thinned out.
measuredParameter: self-aminoacylation

Use the examples below as a reference point.
CCACACUUCAAACAAUCGUUC [Fam1B.1 aminoacylation ribozyme variant] = 1.55
CUACACUUCAAGGAAUCGGUC [Fam1B.1 aminoacylation ribozyme variant] = 3.89
CCACACUUCAAGCAAUCGGAA [Fam1B.1 aminoacylation ribozyme variant] = 1.81
CGUCACCUAGGUCAUCGGGUG [Fam2.2 aminoacylation ribozyme variant] = 28.9
CUACUUCAAAUAAUCGGUCCG [Fam1A.1 aminoacylation ribozyme variant] = 2.68
AUAACCCUGGUCAUCGAGCGA [Fam2.1 aminoacylation ribozyme variant] = 1.91
AUUACCCUGGUCAUCGUGUGG [Fam2.1 aminoacylation ribozyme variant] = 2.9

Query: Name the recorded self-aminoacylation of the sequence listed here: UUACUUCAAACAAUCGGUCUU [Fam1A.1 aminoacylation ribozyme variant]
Result: 17

====

Test system: biotinyl-Trp-oxazolone
protocolNotes: self-aminoacylation, catalytic enhancement (BWO) (fold over background); higher = more active; k-Seq, kA / k0A0; sequences stand for … in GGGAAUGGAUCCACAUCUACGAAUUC…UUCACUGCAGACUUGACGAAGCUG
This sample holds only a part of the variants without activity.
Decide using self-aminoacylation: a value greater than or equal to 1 is Yes, a smaller one is No.

These solved cases illustrate the format of a correct answer.
CCACACUUCAAGCAAGCGGUA [Fam1B.1 aminoacylation ribozyme variant] = No
CAACACUUCAAGCAAUCGGUA [Fam1B.1 aminoacylation ribozyme variant] = Yes
AUUACCCCGUUCAUCGAGUGA [Fam2.1 aminoacylation ribozyme variant] = Yes
AAUUCCCUGGUCAUCGAGUGA [Fam2.1 aminoacylation ribozyme variant] = Yes

Query: For this sequence, is measured self-aminoacylation 1 or higher? CGACACUUCAAGAAAUCGGUC [Fam1B.1 aminoacylation ribozyme variant]
Result: Yes

Query: Quick check: does AAGUUUGCUAAUAAUUGCAAG [Fam3.1 aminoacylation ribozyme variant] have self-aminoacylation greater than or equal to 1?
Result: No

Query: // inclusive: self-aminoacylation at least 1? input: AUGACCCUGGGCAUCGAGUGA [Fam2.1 aminoacylation ribozyme variant]
Result: Yes

Query: API: above_or_equal(metric=self-aminoacylation, cutoff=1) for item AAGUUUGCUACUAGUCGCAAC [Fam3.1 aminoacylation ribozyme variant]
Result: No

Query: Does the sequence AUGUUUGCUAAUAGUCGCAAG [Fam3.1 aminoacylation ribozyme variant] have recorded self-aminoacylation that is 1 or more?
Result: Yes
